Data provenance is the supplement of paper PMC13380429.

Hi there, I'd appreciate the recorded relative viability EC50 for every entry that follows.
Tested on: HepG2
Experiment: relative viability EC50 (midpoint between 100% and the lowest measured viability); higher = less toxic
Conditions: 72 h

Short answer please: relative viability EC50, HepG2, entry C[C@@H](C(=O)O)c1ccc(-c2ccccc2)c(F)c1 (racemic) [flurbiprofen-(+/-)]
> 10 µM

Short answer please: relative viability EC50, HepG2, entry N=C(N)NC(=N)NCCc1ccccc1
> 10 µM

Short answer please: relative viability EC50, HepG2, entry CC(C)(O)c1ccn2c(-c3ccc(F)c(-c4ccc(F)cc4C#N)c3)cnc2c1F
> 10 µM

Short answer please: relative viability EC50, HepG2, entry COc1cc(S(C)(=O)=O)ccc1Nc1nc2ccc(-c3ccc(NC(=O)[C@H](C)c4ccc(F)cc4)cc3)cn2n1
0.508 µM

Short answer please: relative viability EC50, HepG2, entry CC(C)[C@]12O[C@H]1[C@@H]1O[C@]13[C@]1(O[C@H]1C[C@H]1C4=C(CC[C@@]13C)C(=O)OC4)[C@@H]2O [triptolide]
0.0036 µM

Short answer please: relative viability EC50, HepG2, entry CO[C@@]1(NC(=O)Cc2cccs2)C(=O)N2C(C(=O)O)=C(COC(N)=O)CS[C@@H]21
> 10 µM

Short answer please: relative viability EC50, HepG2, entry C=C[C@@]1(C)CC(=O)[C@]2(O)[C@@]3(C)[C@@H](O)CCC(C)(C)[C@@H]3[C@H](O)[C@H](OC(C)=O)[C@@]2(C)O1
> 10 µM

Short answer please: relative viability EC50, HepG2, entry O=C(NCCN1CCCCC1)c1ccc(I)cc1 [N-[2-(piperidinylamino)ethyl]-4-iodobenzamide]
> 10 µM
